For each record, write down the corresponding composite z-score.
# testProtocol: small-molecule binders of probe aNOTCH3, primary screen, biochemical, small-molecule microarray, 635/667 nm fluorescence (AID 1120);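 further: probe is a biotin-tagged antibody raised against NOTCH3 rather than NOTCH3 protein; score merges spot fluorescence near 667 nm with spot signal to noise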
# appliedConditions: higher = more signal
Give bare numbers.

As a guide, the following entries are already answered.
COC(=O)[C@@]1(Cc2ccc(F)cc2)[C@H]2c3cc(C(=O)N(C)C)n(CCc4ccc(O)c(OC)c4)c3C[C@H]2CN1C(=O)c1ccccc1; 0.842
Cc1cc(C)cc(N2C(=O)CSC2c2cccc([N+](=O)[O-])c2)c1 (centres undefined); -0.0023
CC(C)(C)N1CC=CC23O[C@@H]4C=CCCOC(=O)C4[C@H]2C(=O)N(CCO)[C@@H]3C1=O (some centres undefined); -0.13

Now for the compound whose composite z-score we want.
Exercise: # query: composite z-score of entry COc1ccc([Si](C)(C)[C@H]2[C@H](CCn3cc([C@H](O)c4ccccc4)nn3)O[C@@]3(C(=O)N(Cc4ccc(N5C(=O)c6cccc7cccc5c67)cc4)c4ccccc43)[C@@H]2C)cc1
Solution: -0.165
